# target.system: Ls-AChBP (Lymnaea stagnalis, UniProt P58154)
# Sequence (P58154 20-229 limits assumed): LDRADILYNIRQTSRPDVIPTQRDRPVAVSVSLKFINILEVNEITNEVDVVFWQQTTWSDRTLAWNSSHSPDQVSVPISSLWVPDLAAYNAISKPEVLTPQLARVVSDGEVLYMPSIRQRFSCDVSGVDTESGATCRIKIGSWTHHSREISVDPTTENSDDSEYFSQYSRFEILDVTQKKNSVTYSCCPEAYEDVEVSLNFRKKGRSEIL
Bridge positions count the residues as written; N and C are the ends. Peptide text beside a SMILES is read from it.
Measured IC50 values are reported for all entries that follow.
recorded.metric: IC50 (nM)

compound	unit.abbrev	result.number
CC[C@H](C)[C@@H]1NC(=O)[C@H](Cc2cnc[nH]2)NC(=O)[C@@H]2CCCN2C(=O)[C@H](CC(N)=O)NC(=O)[C@H](CC(N)=O)NC(=O)[C@H](C(C)C)NC(=O)[C@H](CC(N)=O)NC(=O)[C@@H]2CSSC[C@H](NC(=O)CN)C(=O)N[C@@H](CSSC[C@@H](C(=O)NCC(N)=O)NC1=O)C(=O)N[C@@H](CO)C(=O)N[C@@H](Cc1cnc[nH]1)C(=O)N1CCC[C@H]1C(=O)N[C@@H](C)C(=O)N2 [OmIA] (H-GCCSHPACNVNNPHICG-NH2; disulfide 2-8, 3-16)	nM	280
CC[C@H](C)[C@@H]1NC(=O)[C@H](Cc2c[nH]cn2)NC(=O)[C@@H]2CCCN2C(=O)[C@H](CC(N)=O)NC(=O)[C@H](CC(N)=O)NC(=O)[C@H](CC(C)C)NC(=O)[C@H](CC(N)=O)NC(=O)[C@@H]2CSSC[C@H](NC(=O)CN)C(=O)N[C@@H](CSSC[C@@H](C(=O)NCC(N)=O)NC1=O)C(=O)N[C@@H](CO)C(=O)N[C@@H](Cc1c[nH]cn1)C(=O)N1CCC[C@H]1C(=O)N[C@@H](C)C(=O)N2 [[V10L]OmIA] (H-GCCSHPACNLNNPHICG-NH2; disulfide 2-8, 3-16)	nM	680
CC[C@H](C)[C@@H]1NC(=O)[C@H](Cc2c[nH]cn2)NC(=O)[C@@H]2CCCN2C(=O)[C@H](CC(N)=O)NC(=O)[C@H](CC(N)=O)NC(=O)[C@H]([C@@H](C)O)NC(=O)[C@H](CC(N)=O)NC(=O)[C@@H]2CSSC[C@H](NC(=O)CN)C(=O)N[C@@H](CSSC[C@@H](C(=O)NCC(N)=O)NC1=O)C(=O)N[C@@H](CO)C(=O)N[C@@H](Cc1c[nH]cn1)C(=O)N1CCC[C@H]1C(=O)N[C@@H](C)C(=O)N2 [[V10T]OmIA] (H-GCCSHPACNTNNPHICG-NH2; disulfide 2-8, 3-16)	nM	1000
